Recorded Z score by entry
# System: Plasmodium falciparum
# protocol.notes: Primary screen in NF54 nanoGlo assay, in single point, at 2uM, 72h; a lower Z score goes with more inhibition
# Assay type: functional, Erythrocyte
# run.parameters: timepoint 72 hour
Among all 150,000 compounds or so, about 540 (0.36%) showed an effect of 50% or more. The full list was thinned out, with strong results kept by preference.
Write the value as a bare number.

sample.smiles: N#CC(c1nc2ccccc2s1)c1nc2ccccc2s1
reported.value: 0.46
--
sample.smiles: N#C[C@@H](C(=O)NCc1ccccc1)c1nc2ccccc2s1
reported.value: 0.39

Which Z score value is on record for `COc1cccc(-c2nn(-c3nc(-c4ccccc4)cc(C(F)(F)F)n3)c(-c3cccc(OC)c3)c2Cl)c1` ?
-3.81

Similarly, `COc1ccc(F)c(-c2cc(N)nc(N(C)C)n2)c1` ?
2.16

Similarly, `CN(C)c1nc(N)cc(-c2cccc3cccnc23)n1` ?
-7.96

Similarly, `CN(C)c1nc(N)cc(-c2ccc(-n3cccn3)cc2)n1` ?
0.21

Recorded values, source ChEMBL document CHEMBL4888484.
